Molecular target: Histamine H3 receptor (Homo sapiens, UniProt Q9Y5N1)
Sequence (Q9Y5N1 whole entry): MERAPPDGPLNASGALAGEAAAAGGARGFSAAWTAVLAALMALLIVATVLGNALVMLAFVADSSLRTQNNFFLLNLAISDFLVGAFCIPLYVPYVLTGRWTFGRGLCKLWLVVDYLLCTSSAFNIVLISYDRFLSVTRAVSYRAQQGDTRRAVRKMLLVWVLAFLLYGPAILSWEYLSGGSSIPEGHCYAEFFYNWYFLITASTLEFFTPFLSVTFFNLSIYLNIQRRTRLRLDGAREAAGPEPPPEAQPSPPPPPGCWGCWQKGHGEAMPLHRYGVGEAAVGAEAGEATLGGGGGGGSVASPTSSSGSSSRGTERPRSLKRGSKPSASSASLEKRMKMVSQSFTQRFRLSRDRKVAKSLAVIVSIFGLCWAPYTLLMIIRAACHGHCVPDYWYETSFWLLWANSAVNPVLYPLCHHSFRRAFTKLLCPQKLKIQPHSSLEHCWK
Assay: Effect on specific [35S]GTP-gamma-S, Binding to HEK293 cell membranes expressing the human Histamine H3 receptor
Format: functional
Quantity Kind: Intrinsic activity
Give the value as a plain number.

Solved entries:
>>> print(df.to_string())
                         structure_smiles  numeric_readout
0         C=CCOCCCc1c[nH]cn1.O=C(O)C(=O)O             0.63
1  CCCCCCOCCCc1c[nH]cn1.O=C(O)/C=C\C(=O)O             0.49
2   CCCCCOCCCc1c[nH]cn1.O=C(O)/C=C\C(=O)O             0.47
3         C#CCOCCCc1c[nH]cn1.O=C(O)C(=O)O             0.73

// next item, Intrinsic activity requested
Input line: Give Intrinsic activity (Histamine H3 receptor (Homo sapiens, UniProt Q9Y5N1)) of the following compound: `CCCCOCCCc1c[nH]cn1.O=C(O)/C=C\C(=O)O`
Output line: 0.39

====

Target: Histamine H3 receptor (Homo sapiens)
Assay: Effect on specific [35S]GTP-gamma-S, Binding to HEK293 cell membranes expressing the human Histamine H3 receptor
Quantity Kind: pEC50
Remember, pEC50 is on a log scale: it is -log10 of the molar concentration.

A selection of reference data follows.
                         structure_smiles  quantity_kind  numeric_readout
0  CCCCCCOCCCc1c[nH]cn1.O=C(O)/C=C\C(=O)O          pEC50             7.40
1         C#CCOCCCc1c[nH]cn1.O=C(O)C(=O)O          pEC50             6.87
2   CCCCCOCCCc1c[nH]cn1.O=C(O)/C=C\C(=O)O          pEC50             7.01

Input line: Requested field: pEC50. Item: `C=CCOCCCc1c[nH]cn1.O=C(O)C(=O)O`
Output line: 6.47

Input line: And then `CCCCOCCCc1c[nH]cn1.O=C(O)/C=C\C(=O)O` , what is it?
Output line: 6.51

====

Molecular target: Histamine H3 receptor (Rattus norvegicus, UniProt Q9QYN8)
Sequence (Q9QYN8 whole entry): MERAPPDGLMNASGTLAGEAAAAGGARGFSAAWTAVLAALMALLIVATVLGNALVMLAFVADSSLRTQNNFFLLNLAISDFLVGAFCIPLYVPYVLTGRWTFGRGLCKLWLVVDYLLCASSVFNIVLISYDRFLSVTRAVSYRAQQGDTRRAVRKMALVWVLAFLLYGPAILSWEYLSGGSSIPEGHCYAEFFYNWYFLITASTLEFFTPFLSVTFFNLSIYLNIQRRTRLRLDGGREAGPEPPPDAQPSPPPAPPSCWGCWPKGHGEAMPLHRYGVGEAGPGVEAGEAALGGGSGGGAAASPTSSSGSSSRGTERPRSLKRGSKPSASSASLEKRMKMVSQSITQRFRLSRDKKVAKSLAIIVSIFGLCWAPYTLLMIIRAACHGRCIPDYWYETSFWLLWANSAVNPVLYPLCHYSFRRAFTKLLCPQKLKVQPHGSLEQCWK
Experiment: Functional Histamine H3 receptor antagonistic activity in vitro assay on synaptosomes of rat cerebral cortex
Assay type: subcellular, Brain
Quantity Kind: pKi
// field semantics: pKi = negative decimal log of concentration (mol/L)

Here is how some compounds turned out for pKi.
>>> df
                           structure_smiles  numeric_readout
0                     CCCCCCCOCCCc1c[nH]cn1             7.80
1                      C#CCCCOCCCc1c[nH]cn1             7.40
2                c1nc(CCCOCCC2CCCCC2)c[nH]1             8.00
3  O=C(O)/C=C\C(=O)O.c1nc(CCCOCCCC2CCCCC2)c[nH]1             7.70
4           C=CCOCCCc1c[nH]cn1.O=C(O)C(=O)O             6.70

Input line: May I ask what pKi has been recorded for `CCCCCOCCCc1c[nH]cn1.O=C(O)/C=C\C(=O)O` ?
Output line: 7.50

Input line: Next up: `CCCOCCCc1c[nH]cn1.O=C(O)C(=O)O`
Output line: 6.60

Input line: Now give it for `O=C(O)/C=C\C(=O)O.c1nc(CCCOCCCC2CCCC2)c[nH]1` too.
Output line: 8.20

Input line: Okay, and `CC(C)(C)OCCCc1c[nH]cn1.O=C(O)/C=C\C(=O)O` ?
Output line: 6.90

====

Target: Histamine H2 receptor (Cavia porcellus, UniProt P47747)
Sequence (P47747 whole entry): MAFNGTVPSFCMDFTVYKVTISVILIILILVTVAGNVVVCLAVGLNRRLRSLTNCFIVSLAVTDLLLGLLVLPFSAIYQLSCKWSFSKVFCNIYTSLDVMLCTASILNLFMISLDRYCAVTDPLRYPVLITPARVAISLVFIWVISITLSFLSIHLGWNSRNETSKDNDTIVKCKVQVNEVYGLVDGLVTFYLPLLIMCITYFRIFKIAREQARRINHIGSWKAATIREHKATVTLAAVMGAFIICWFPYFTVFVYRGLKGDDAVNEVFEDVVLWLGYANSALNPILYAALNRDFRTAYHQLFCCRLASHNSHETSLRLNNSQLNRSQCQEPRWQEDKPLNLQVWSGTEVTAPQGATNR
Experiment: Functional H2 receptor antagonistic activity in vitro assay on the isolated spontaneously beating guinea-pig right atrium
Format: tissue-based, Cardiac atrium
Details: read-out: pA2 (converted)
Quantity Kind: Kb

// worked examples, Kb included
>>> df
                           structure_smiles     result
0  O=C(O)/C=C\C(=O)O.c1nc(CCCOCCCC2CCCCC2)c[nH]1    50.1 µM
1              COCCCc1c[nH]cn1.O=C(O)C(=O)O  > 31.6 µM
2           C#CCOCCCc1c[nH]cn1.O=C(O)C(=O)O  > 31.6 µM

Input line: Recall the recorded Kb for `CCCCCOCCCc1c[nH]cn1.O=C(O)/C=C\C(=O)O` with Histamine H2 receptor (Cavia porcellus, UniProt P47747) and state it.
Output line: > 31.6 µM

Input line: Queued: `CCCCCCCOCCCc1c[nH]cn1`
Output line: 2 µM

Input line: Then this compound: `CC(C)(C)OCCCc1c[nH]cn1.O=C(O)/C=C\C(=O)O`
Output line: > 31.6 µM

====

Target: Histamine H3 receptor (Rattus norvegicus, UniProt Q9QYN8)
Experiment: In vitro […] against rat histamine H3 receptor
Reported Ki values are given for each entry in this list.
Numbers only; they are read as nM.

Sample answers from the record:
                                   compound                            assayed_system  quantity_kind  numeric_readout
0            CCCOCCCc1c[nH]cn1.O=C(O)C(=O)O  Histamine H3 receptor (Rattus norvegicus, UniProt Q9QYN8)             Ki              230
1           C=CCOCCCc1c[nH]cn1.O=C(O)C(=O)O  Histamine H3 receptor (Rattus norvegicus, UniProt Q9QYN8)             Ki              200
2    CCCCCCOCCCc1c[nH]cn1.O=C(O)/C=C\C(=O)O  Histamine H3 receptor (Rattus norvegicus, UniProt Q9QYN8)             Ki               14
3     CCCCCOCCCc1c[nH]cn1.O=C(O)/C=C\C(=O)O  Histamine H3 receptor (Rattus norvegicus, UniProt Q9QYN8)             Ki               33
4  O=C(O)/C=C\C(=O)O.c1nc(CCCOCCCC2CCCC2)c[nH]1  Histamine H3 receptor (Rattus norvegicus, UniProt Q9QYN8)             Ki                7
5              COCCCc1c[nH]cn1.O=C(O)C(=O)O  Histamine H3 receptor (Rattus norvegicus, UniProt Q9QYN8)             Ki              290

Please look at the following compound next.
Input line: Which measured Ki value corresponds to `CC(C)(C)OCCCc1c[nH]cn1.O=C(O)/C=C\C(=O)O` ?
Output line: 120

====

Target: UniProt P31389
Sequence (P31389 whole entry): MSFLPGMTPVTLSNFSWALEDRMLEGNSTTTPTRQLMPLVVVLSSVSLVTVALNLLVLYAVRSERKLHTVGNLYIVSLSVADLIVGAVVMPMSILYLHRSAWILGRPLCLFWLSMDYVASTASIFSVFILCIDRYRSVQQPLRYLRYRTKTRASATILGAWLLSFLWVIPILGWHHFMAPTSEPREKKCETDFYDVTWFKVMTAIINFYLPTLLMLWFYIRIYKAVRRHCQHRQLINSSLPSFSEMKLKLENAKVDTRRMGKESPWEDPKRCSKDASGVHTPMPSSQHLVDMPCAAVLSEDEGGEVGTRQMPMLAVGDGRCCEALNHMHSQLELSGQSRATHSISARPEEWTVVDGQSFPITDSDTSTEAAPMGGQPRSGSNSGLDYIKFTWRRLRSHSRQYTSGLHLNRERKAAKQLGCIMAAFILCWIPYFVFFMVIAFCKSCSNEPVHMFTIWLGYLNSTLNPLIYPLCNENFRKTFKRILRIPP
Assay: Functional Histamine H1 receptor antagonistic activity in vitro assay on guinea pig ileum
Type: tissue-based
Details: read-out: pA2 (converted)
Quantity Kind: Kb (µM)
Give just the number in µM; leave the unit off.

In [3]: df
Out[3]:
                           structure_smiles  quantity_kind  numeric_readout
0     CCCCCOCCCc1c[nH]cn1.O=C(O)/C=C\C(=O)O             Kb               20
1  O=C(O)/C=C\C(=O)O.c1nc(CCCOCCCC2CCCCC2)c[nH]1             Kb             7.94
2  CCCCCCCCOCCCc1c[nH]cn1.O=C(O)/C=C\C(=O)O             Kb             15.8

Input line: Entry `O=C(O)/C=C\C(=O)O.c1nc(CCCOCCCC2CCCC2)c[nH]1` : reported Kb = ?
Output line: 20

Input line: Now the compound `CCCCCCOCCCc1c[nH]cn1.O=C(O)/C=C\C(=O)O`
Output line: 7.94

====

Overview of recorded log10 of ED50 for various compounds
Tested on: Mus musculus
Assay: Potency after oral administration in vivo in mice
Assay type: functional
Give log10 of ED50, with ED50 taken in mg/kg.

The cases that follow already have their log10 of ED50 on record.
>>> df
                                   compound  numeric_readout
0             CCOCCCc1c[nH]cn1.O=C(O)C(=O)O            -0.59
1  S=C(NC1CCCCC1)N1CCC(c2cnc[nH]2)CC1 [THIOPERAMIDE]             0.00
2  CC(C)(C)OCCCc1c[nH]cn1.O=C(O)/C=C\C(=O)O             0.11
3           C=CCOCCCc1c[nH]cn1.O=C(O)C(=O)O            -0.48
4           C#CCOCCCc1c[nH]cn1.O=C(O)C(=O)O            -0.24
5            CCCOCCCc1c[nH]cn1.O=C(O)C(=O)O             0.26

Next compound, log10 of ED50 to be filled in.
Input line: For O=C(c1ccc(OCCCc2c[nH]cn2)cc1)C1CC1 [CIPROXIFAN] , what is its reported log10 of ED50?
Output line: -0.85
